# target: AR protein (Homo sapiens, UniProt P10275, T878A)
# Construct: host or cells: LNCaP FGC
# Sequence (P10275 whole entry T878A): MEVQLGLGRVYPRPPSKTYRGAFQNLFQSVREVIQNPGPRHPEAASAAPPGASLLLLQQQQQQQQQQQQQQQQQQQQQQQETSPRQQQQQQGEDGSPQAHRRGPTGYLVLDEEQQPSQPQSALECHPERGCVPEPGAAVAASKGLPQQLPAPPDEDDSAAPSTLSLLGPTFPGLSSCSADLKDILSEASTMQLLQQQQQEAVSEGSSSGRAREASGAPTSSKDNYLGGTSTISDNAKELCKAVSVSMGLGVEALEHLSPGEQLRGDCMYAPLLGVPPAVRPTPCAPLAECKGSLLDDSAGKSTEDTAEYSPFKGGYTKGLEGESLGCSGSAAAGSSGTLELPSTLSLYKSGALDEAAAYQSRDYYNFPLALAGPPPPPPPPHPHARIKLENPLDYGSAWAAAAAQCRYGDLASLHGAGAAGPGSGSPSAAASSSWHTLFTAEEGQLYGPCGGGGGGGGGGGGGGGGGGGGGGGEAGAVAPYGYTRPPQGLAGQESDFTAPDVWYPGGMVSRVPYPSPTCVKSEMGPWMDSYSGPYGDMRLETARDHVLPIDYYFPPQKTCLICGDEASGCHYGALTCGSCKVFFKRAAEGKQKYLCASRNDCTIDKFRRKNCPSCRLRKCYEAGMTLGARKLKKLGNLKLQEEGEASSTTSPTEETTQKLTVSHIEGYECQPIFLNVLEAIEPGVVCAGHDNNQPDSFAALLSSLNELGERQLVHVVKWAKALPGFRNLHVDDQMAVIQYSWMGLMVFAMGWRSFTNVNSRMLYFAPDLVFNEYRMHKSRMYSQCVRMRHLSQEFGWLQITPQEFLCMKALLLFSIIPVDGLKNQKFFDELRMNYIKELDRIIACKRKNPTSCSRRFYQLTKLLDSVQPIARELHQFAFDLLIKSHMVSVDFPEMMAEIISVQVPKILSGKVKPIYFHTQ
# protocol-details: AR protein degradation in LNCaP cells (Western blot)
# Type: cell-based
# conditions-used: 100 nM, 8 hours
measured-metric: Degradation of AR protein in LNCaP cells, 100 nM (%)

INSERT INTO assay_data (molecule, result) VALUES
  ('COc1cc(O[C@H]2C(C)(C)[C@H](NC(=O)c3ccc(N4CCC(CN5CCC6(CCc7cc(C(=O)N[C@H]8CCC(=O)NC8=O)c(F)cc7O6)CC5)CC4)cc3)C2(C)C)ccc1C#N', '78%'),
  ('COc1cc(O[C@H]2C(C)(C)[C@H](NC(=O)c3ccc(N4CCC(CN5CC6(CCC7(CC6)COc6c7ccc7c6CN(C6CCC(=O)NC6=O)C7=O)C5)CC4)cc3)C2(C)C)ccc1C#N (relative stereo)', '65%'),
  ('CC1(C)[C@H](NC(=O)c2ccc(N3CCC(CN4CCN5c6ccc(C(=O)N[C@H]7CCC(=O)NC7=O)cc6OC[C@H]5C4)CC3)cc2)C(C)(C)[C@H]1Oc1ccc(C#N)c(Cl)c1', '62%'),
  ('COc1cc(O[C@H]2C(C)(C)[C@H](NC(=O)c3ccc(N4CCC5(CC4)CC(N4CCC6(CC4)COc4cc7c(cc46)n(C)c(=O)n7C4CCC(=O)NC4=O)C5)nn3)C2(C)C)ccc1C#N (relative stereo)', '32%'),
  ('COc1cc(O[C@H]2C(C)(C)[C@H](NC(=O)c3ccc(N4CCC(F)(CN5CCC6(CC5)COc5c6ccc(C(=O)N[C@H]6CCC(=O)NC6=O)c5F)CC4)cc3)C2(C)C)ccc1C#N', '33%');
